Entries and their measured fraction unbound follow.
protocol: Plasma protein binding (PPB), mouse
Type: in vitro ADME

{"columns": ["molecule", "reported value"],
 "data": [
  ["CNC(C)(C)Cc1ccc(NS(=O)(=O)c2ccc(NC(=O)N[C@@H](C)c3ccc(-c4cnccn4)c(Cl)c3Cl)cc2)cc1 [H0941]", 0.0005],
  ["C[C@H](NC(=O)Nc1ccc(S(=O)(=O)Cc2ccc(CO)cc2)cc1)c1cccc(Cl)c1Cl [H1060]", 0.0019],
  ["C[C@H](NC(=O)Nc1ccc(S(=O)(=O)Cc2ccc3c(c2)CCN(C)C3)cc1)c1cccc(Cl)c1Cl [H1071]", 0.0098],
  ["C[C@H](NC(=O)Nc1ccc(S(=O)(=O)Nc2ccc(CC(C)(C)N)cc2)cc1)c1ccc(-c2cnccn2)c(Cl)c1Cl [H0906]", 0.0004],
  ["CC(NC(=O)Nc1ccc(S(=O)(=O)Cc2ccc3c(c2)CNC3)cc1)c1ccccc1.Cl (stereo not shown) [H1148]", 0.077]
]}

Can you share its fraction unbound? I mean this molecule: COc1ccc([C@H](C)NC(=O)Nc2ccc(S(=O)(=O)Nc3ccc4c(c3)CCN(C)C4)cc2)c(Cl)c1Cl [H1017]
0.0003

I'd like to know its fraction unbound. The molecule in question is C[C@H](NC(=O)Nc1ccc(S(=O)(=O)Cc2ccc3c(c2)CNC3)cc1)c1ccccc1 [H1215]
0.093

* * *

target: GHSR-1a (HEK293/GHSR1a cell line) (Homo sapiens, UniProt Q92847)
Construct: expressed in transfected cells; host or cells: HEK293/GHSR1a cell line
Sequence (Q92847 whole entry): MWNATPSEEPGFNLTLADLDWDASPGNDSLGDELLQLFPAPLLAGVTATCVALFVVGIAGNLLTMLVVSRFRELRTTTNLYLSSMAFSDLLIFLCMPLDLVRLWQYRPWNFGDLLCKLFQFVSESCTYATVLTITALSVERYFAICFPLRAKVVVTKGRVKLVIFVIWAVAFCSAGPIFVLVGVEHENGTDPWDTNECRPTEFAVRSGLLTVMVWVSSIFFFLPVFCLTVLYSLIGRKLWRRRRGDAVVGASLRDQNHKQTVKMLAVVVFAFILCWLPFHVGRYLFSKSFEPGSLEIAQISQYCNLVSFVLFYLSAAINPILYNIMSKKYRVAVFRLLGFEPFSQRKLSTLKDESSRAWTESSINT
protocol: Ghrelin antagonist potency (IC50) with calcium FLIPR assay, ghrelin 10 nM
Assay type: cell-based
condition details: ghrelin antagonist potency, read-out: Activity IC50
Experimental: Evaluation of Ghrelin Agonist (EC50) and Antagonist Potency (IC50) with Calcium FLIPR Assay: The intracellular calcium assay was carried out in a 384-well format FLIPR™ (Molecular Device) HEK293/GHSR1a cell line. […] Relative fluorescence was monitored by the FLIPR™ Molecular Device. […] To check for GHSR-1a antagonism, the compound and Ghrelin (10 nM) were added to the cells at t=20 sec. and the calcium response was measured for 2 minutes. […]
Below, each of the compounds is paired with its reported pIC50 value.
pIC50 (log units): -log10 of the concentration in mol/L.

Hello, I am looking for reported pIC50 with GHSR-1a (HEK293/GHSR1a cell line) (Homo sapiens, UniProt Q92847) for CC(NC(=O)Nc1ccc(S(=O)(=O)Cc2ccc3c(c2)CNC3)cc1C(=O)O)c1cccc(Cl)c1Cl (stereo not shown) . Could you help?
8.77

Test system GHSR-1a (HEK293/GHSR1a cell line) (Homo sapiens, UniProt Q92847); read-out pIC50; what value for O=C(NCC1COc2ccccc2O1)Nc1ccc(S(=O)(=O)Cc2ccc3c(c2)CNC3)cc1 (stereo not shown) ?
7.27

Notebook entry, GHSR-1a (HEK293/GHSR1a cell line) (Homo sapiens, UniProt Q92847) assay: pIC50 of CC(c1ccccc1)N(C)C(=O)Nc1ccc(S(=O)(=O)Cc2ccc3c(c2)CNC3)cc1O (stereo not shown) = ?
6.27

Recorded pIC50 for C[C@@H](NC(=O)Nc1ccc(S(=O)(=O)Cc2ccc3c(c2)C(F)CN(C)C3)cc1)c1ccccc1 (stereo partly shown) with GHSR-1a (HEK293/GHSR1a cell line) (Homo sapiens, UniProt Q92847), please?
5.09
